I'd be grateful if you could share measured MRT for these entries.
# Experiment: Pharmacokinetic assay in Balb/c mice (plasma and brain tissue)
# Assay type: in vivo
# Reported Conditions: mouse, po; plasma, 5 mg/kg p.o., male Balb/c mice; read-out: Mean residence time MRT
One number for each entry, in h.

Compound Structure	Output Unit	MRT
C[C@@]1(O)CC[C@H]2[C@H](CC[C@@H]3[C@@H]2CC[C@@]2(C)[C@H]3[C@@H]3C[C@@H]3[C@@H]2C(=O)COc2cnc(C(F)(F)F)nc2)C1	h	3.83

For each of the compounds below, state MRT.
1. C[C@@]1(O)CC[C@H]2[C@H](CC[C@@H]3[C@@H]2CC[C@@]2(C)[C@H]3[C@H](C3CC3)C[C@@H]2C(=O)Cn2ncnn2)C1
2. C[C@@]1(O)CC[C@H]2[C@H](CC[C@@H]3[C@@H]2CC[C@@]2(C)[C@H]3[C@H](C3CC3)C[C@@H]2C(=O)Cn2nccn2)C1
3. C[C@@]1(O)CC[C@H]2[C@H](CC[C@@H]3[C@@H]2CC[C@@]2(C)[C@H]3[C@@H]3C[C@@H]3[C@@H]2C(=O)Cn2cc([N+](=O)[O-])cn2)C1
4. C[C@@]1(O)CC[C@H]2[C@H](CC[C@@H]3[C@@H]2CC[C@@]2(C)[C@H]3[C@@H]3C[C@@H]3[C@@H]2C(=O)Cn2ncnn2)C1

[2.97, 2.06, 2.12, 1.1]
